Below: a set of entries, each annotated with reported residual activity.
- measurementTarget: Casein kinase I isoform gamma-1 (Homo sapiens)
- details: at 10 µM
- Description: Millipore: Percentage of residual kinase activity of CSNK1G1 at 10uM relative to control. Control inhibitor: Phosphoric acid* at 0.3uM. Buffer: 8 mM MOPS pH 7.0, 0.2 mM EDTA

molecule	unitTag	residual activity
O=Nc1c(-c2c(O)[nH]c3ccccc23)[nH]c2ccccc12	%	19
CC#CC(=O)Nc1cc2c(Nc3ccc(F)c(Cl)c3)ncnc2cn1	%	95
COc1ccc(C(=O)Nc2sc3c(c2C(N)=O)CCCC3)cc1OC	%	103
O=C1NC(=O)/C(=C\c2ccc3nccnc3c2)S1	%	44
Oc1ccc(Nc2nc(-c3ccc(Cl)cc3)cs2)cc1	%	98
N#CC(C#N)=C(N)/C(C#N)=C/c1ccc(O)cc1	%	99
Cc1ccc(S(=O)(=O)/C=C/C#N)cc1	%	83
COc1cccc(-c2cc(=O)c3ccccc3o2)c1N	%	88
CC(=O)O/N=C1\C(=C2\C(=O)Nc3cc(Br)ccc32)Nc2ccccc21	%	82
O=C1c2ccccc2-[n+]2ccc3c([nH]c4ccccc43)c21	%	81
Nc1cccc(-c2cc3c(Oc4cccc(O)c4)ncnc3[nH]2)c1	%	49
O=C1NC(=O)/C(=C/c2ccc3c(c2)OC(F)(F)O3)S1	%	94
Cn1cc(/C=C2\C(=O)Nc3ccc(S(N)(=O)=O)cc32)c2ccccc21	%	52
Cc1ccc(NC2=CC(=O)c3sc(C)nc3C2=O)cc1	%	88
COc1cc2ncnc(Nc3ccc(Oc4ccccc4)cc3)c2cc1OC	%	89
O=C(Nc1cccc(Nc2nccc(Nc3cccc(C(F)(F)F)c3)n2)c1)C1CC1	%	94
COc1cc2ncnc(Nc3ccc(O)c(Br)c3)c2cc1OC	%	41
O=C1NC(=O)c2c1c1c3ccccc3[nH]c1c1[nH]c3cc(Br)ccc3c21	%	88
CC[n+]1c(/C=C/N(C)c2ccccc2)n(-c2ccccc2)c2ccc(-c3nc4ccccc4s3)cc21	%	100
O=C(Nc1cccc(Nc2cc(Nc3cccc(C(F)(F)F)c3)ncn2)c1)C1CC1	%	66
Cc1cccc(-c2[nH]c(C(C)(C)C)nc2-c2ccc3c(c2)OCO3)n1	%	100
COc1ccc(S(=O)(=O)N(CCO)c2ccccc2CN(C)C/C=C/c2ccc(Cl)cc2)cc1	%	75
c1ccc2c(-c3ccncc3)c[nH]c2c1	%	95
